Data origin, for the record: patent US20150376172A1

System Under Test: BACE1 (Homo sapiens, UniProt P56817)
Construct: endogenous in cells
Sequence (P56817 46-501): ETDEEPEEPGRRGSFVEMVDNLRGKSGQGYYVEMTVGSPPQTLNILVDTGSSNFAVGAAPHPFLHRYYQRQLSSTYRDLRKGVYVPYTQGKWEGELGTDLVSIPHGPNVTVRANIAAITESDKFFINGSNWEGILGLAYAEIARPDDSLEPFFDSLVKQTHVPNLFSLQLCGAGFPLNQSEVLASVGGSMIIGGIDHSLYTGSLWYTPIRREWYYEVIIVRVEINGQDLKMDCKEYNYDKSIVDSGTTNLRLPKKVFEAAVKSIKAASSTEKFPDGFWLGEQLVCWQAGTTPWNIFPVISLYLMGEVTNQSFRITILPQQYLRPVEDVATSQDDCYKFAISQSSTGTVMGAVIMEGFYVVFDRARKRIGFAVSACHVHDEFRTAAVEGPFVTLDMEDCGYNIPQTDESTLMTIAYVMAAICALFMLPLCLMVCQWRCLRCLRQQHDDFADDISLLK
Measurement Protocol: Cellular Aβ-lowering assay (Abeta 40 AlphaLISA)
Assay Context: HEK293 APP cells; 18-20 hrs incubation; Aβ 40 in culture supernatants by AlphaLISA; read-out: BACE1 cell act. Aβ40 IC50
Measurement Kind: IC50 (µM)

NC1=N[C@](CF)(c2cc(C#Cc3cncc(Cl)c3)ccc2F)C[C@@H](C(F)(F)F)O1 :: 3.49
C[C@@]1(c2cc(-c3cncc(C#N)c3)ccc2F)C[C@@H](C(F)(F)F)OC(N)=N1 :: 0.9

[A] C[C@@]1(c2cc(-c3cnn(C(F)F)c3)ccc2F)C[C@@H](C(F)(F)F)OC(N)=N1
[B] CC#Cc1cncc(-c2cc(Cl)c([C@]3(C)C[C@@H](C(F)(F)F)OC(N)=N3)s2)c1
Enquiry: Select the item whose IC50 value is smaller, choosing between A and B . Indicate which entry you chose by stating its label.
Return: B
